Values compiled from paper PMC5540273.

# Tested on: TYK2(JH1domain-catalytic);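 note: KINOMEscan kinase panel screen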
# cond: concentration: 1 μM, replicates: in singlicate; n = 1
result.type: %Inh (%)
The reply should be a number in %, with the unit left off.

Qu. Can you share its %Inh? I mean this compound: [2H]C([2H])(c1cccc(C(F)(F)F)c1C)n1ccn2c(=O)nc(N3CCOCC3)cc12
Ans. 71

Qu. How about Fc1ccc(-c2nn3c(OCC(F)(F)F)cccc3c2-c2ccncc2)cc1 ?
Ans. 10

Qu. How about COc1ccc(S(=O)(=O)NC2CCN(c3cc(C)nc(Nc4cccc(C#N)c4)n3)CC2)cc1.O=C(O)C(F)(F)F ?
Ans. 0

Qu. How about CCCCCc1nc2c(N)ncnc2n1CCCCC ?
Ans. 7
